- system: Aryl hydrocarbon receptor (Homo sapiens) (UniProt P35869)
- Sequence (P35869 whole entry, looked up): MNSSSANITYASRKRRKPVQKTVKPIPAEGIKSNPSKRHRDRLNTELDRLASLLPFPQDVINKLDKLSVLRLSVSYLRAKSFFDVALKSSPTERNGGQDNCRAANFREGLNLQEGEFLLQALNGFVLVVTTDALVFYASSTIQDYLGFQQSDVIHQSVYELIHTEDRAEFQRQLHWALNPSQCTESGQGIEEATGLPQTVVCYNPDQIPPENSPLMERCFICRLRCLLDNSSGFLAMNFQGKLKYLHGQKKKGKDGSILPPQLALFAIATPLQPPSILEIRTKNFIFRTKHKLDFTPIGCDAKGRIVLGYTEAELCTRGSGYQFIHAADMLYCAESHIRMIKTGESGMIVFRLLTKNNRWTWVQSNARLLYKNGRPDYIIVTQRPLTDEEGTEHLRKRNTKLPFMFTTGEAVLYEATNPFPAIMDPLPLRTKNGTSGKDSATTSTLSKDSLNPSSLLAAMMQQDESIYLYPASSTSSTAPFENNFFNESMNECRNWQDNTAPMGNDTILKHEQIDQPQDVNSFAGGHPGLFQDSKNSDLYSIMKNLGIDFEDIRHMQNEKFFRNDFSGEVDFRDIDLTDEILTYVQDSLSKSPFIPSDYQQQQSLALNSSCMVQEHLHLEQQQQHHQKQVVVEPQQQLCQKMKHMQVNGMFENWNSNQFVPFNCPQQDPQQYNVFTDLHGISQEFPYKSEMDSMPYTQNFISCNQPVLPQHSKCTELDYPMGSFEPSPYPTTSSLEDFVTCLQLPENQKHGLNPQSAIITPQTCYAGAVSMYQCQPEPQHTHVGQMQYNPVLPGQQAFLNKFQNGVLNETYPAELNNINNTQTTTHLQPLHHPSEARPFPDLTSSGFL
- procedure details: qHTS assay to identify small molecule that activate the aryl hydrocarbon receptor (AhR) signaling pathway (AID 743085); note: nearly all actives have a fitted effect of over 15% in size;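 for activation: HG2L7.5c1 human HepG2 liver cells with stably integrated DRE-driven firefly reporter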
- condition: HepG2 AhR-luc (HG2L7.5c1), luciferase, 24 h; series mostly up to 70.3 µM
Records with an inconclusive call do not appear. Active and inactive are the calls of the source. Calls come from the whole dose curve; as a rule, active = well fitted activation curve with a large enough effect in the repeat runs; inconclusive = weak or mixed curves; inactive = no such curve, though single readings can be large or run the other way.
Outcome codes: active, inactive

1) BrC(Br)Br    inactive
2) CC(=O)c1cc(C(C)(C)C)cc2c1CCC2(C)C    inactive
3) COC12CC[C@@]3(C[C@@H]1C(C)(O)C(C)(C)C)[C@H]1Cc4ccc(O)c5c4[C@@]3(CCN1CC1CC1)[C@H]2O5 (stereo partly specified)    inactive
4) CN(C)S(=O)(=O)N(SC(F)(Cl)Cl)c1ccccc1    inactive
5) ClC(Cl)=C(c1ccc(Cl)cc1)c1ccc(Cl)cc1    inactive
6) O=[N+]([O-])c1cc(C(F)(F)F)c(Cl)c([N+](=O)[O-])c1Cl    inactive
7) [Hg+2].[I-].[I-]    inactive
8) Cc1cc(C(F)(C(F)(F)F)C(F)(F)F)ccc1NC(=O)c1cccc(I)c1C(=O)NC(C)(C)CS(C)(=O)=O    inactive
9) CN(C)CCc1c[nH]c2cccc(O)c12    inactive
10) CCCCCCCCCCCCCCCC[n+]1ccccc1    inactive
11) CC(=O)C(Cl)(Cl)Cl    inactive
12) Cc1cc(SCc2sc(-c3ccc(C(F)(F)F)c(F)c3)nc2C)ccc1OCC(=O)O    inactive
13) CSCCCN=C=S    inactive
14) c1ccc2cc3c(cc2c1)-c1cccc2cccc-3c12    active
15) CCN(CC)c1c([N+](=O)[O-])cc(C(F)(F)F)c(N)c1[N+](=O)[O-]    inactive
16) CCCCCCCCc1ccc(O)cc1    inactive

----------
- procedure details: qHTS assay for small molecule agonists of the antioxidant response element (ARE) signaling pathway - cell viability counter screen (AID 743203); note: nearly all actives have a fitted effect of over 55% in size
- condition: ARE-bla HepG2 viability, CellTiter-Glo luminescence, 16 h; series mostly up to 73.3 µM
Results filed as inconclusive are left out. Activity calls are given as the source filed them. The call rests on the fitted dose curve.
Outcomes: active, inactive

1) O=c1c(C2CC(c3ccc(-c4ccc(Br)cc4)cc3)Cc3ccccc32)c(O)sc2ccccc12 (stereo unspecified)    active
2) CCCCOCN(C(=O)CCl)c1c(CC)cccc1CC    active
3) N#CC(Cl)Cl    inactive
4) O=C1NCN(c2ccccc2)C12CCN(CC1COc3ccccc3O1)CC2 (stereo unspecified)    inactive
5) CCN    inactive
6) CC(c1ccc(O)cc1)c1ccc(O)cc1    inactive
7) c1ccc(OCC2CO2)cc1 (stereo unspecified)    inactive
8) O=C1c2ccccc2C(=O)C1C(=O)C(c1ccccc1)c1ccc(Cl)cc1 (stereo unspecified)    active
9) O=C(O)COc1nc(Cl)c(Cl)cc1Cl    inactive
10) CCN(CC)c1c([N+](=O)[O-])cc(C(F)(F)F)c(N)c1[N+](=O)[O-]    inactive
11) Clc1ccc(C(c2ccccc2Cl)C(Cl)(Cl)Cl)cc1 (stereo unspecified)    active
12) BrC(Br)Br    inactive
13) NNC(=O)c1ccccc1    inactive
14) CC(=O)/C=C/c1ccc2c(c1)OCO2    inactive
15) CC(C)(O)c1cnn2c(-c3ccc(F)c(-c4c(F)cccc4C#N)c3)cnc2n1    inactive
16) Nc1ccccc1C(=O)Oc1ccc2ccccc2c1    inactive
17) CCCCCCCCCCCCCC[P+](CCCCCC)(CCCCCC)CCCCCC (tested in a mixture with another compound)    active
18) BrC(Br)C(Br)(Br)Br    active
19) Nc1ccccc1C(=O)OC/C=C/c1ccccc1    active
20) CC(=O)OC1(c2ccccc2)CCN(CCc2ccccc2)CC1    inactive
21) COc1ccc(OC)c(CC(C)N)c1 (stereo unspecified)    inactive

Numbers sourced from PubChem BioAssay (Tox21).
